Every entry's value here was drawn from PubChem BioAssay AID588345.

# Experimental system: Dual specificity tyrosine-phosphorylation-regulated kinase 1A (Rattus norvegicus)
# Assay: rat Dyrk1A kinase inhibitors, dose response, biochemical, cherry-pick, plate reader, 2124-01 (AID 588345)
# Condition notes: Dyrk1A kinase biochemical assay; series mostly up to 12 µM
Hit rate of the full screen: of about 1,300 compounds, about 850 (65%) were called active. Inconclusive results (about 1%) are left out. So high a share suggests a set chosen from earlier hits. Only a sample is shown. Results with a measured potency or affinity are listed apart.

Compound: CCOCCOc1nc2c(c(=O)n(C)c(=O)n2C)n1Cc1ccc(C)cc1
outcome: inactive
--
Compound: CCOC(=O)C1CCCN(c2c(NCCCN3CCCC(C)C3)c(=O)c2=O)C1 (centres undefined)
outcome: inactive
--
Compound: CC(C)Oc1ccc(C2CNC(=O)C2)cc1 (centres undefined)
outcome: inactive
--
Compound: Cn1c(C(=O)N2CCCC2)cc2c(=O)n(C)c3ccccc3c21
outcome: inactive
--
Compound: O=C(Nc1ncc2c(n1)-c1ccccc1CC2)c1ccc(Cl)cc1
outcome: inactive
--
Compound: N#C/C(=C\c1ccc(O)c(O)c1)C(=O)NCCc1ccccc1
outcome: inactive
--
Compound: Clc1ccc2[nH]c3c(c2c1)CCc1cn[nH]c1-3
outcome: inactive
--
Compound: Cc1cccc(C(C)n2nnc3ccccc32)c1O (centres undefined)
outcome: inactive
--
Compound: c1cnc2ncc3sccc3c2c1
outcome: inactive
--
Compound: O=C1c2ccccc2S(=O)(=O)N1Cc1nnc(-c2ccccc2Br)o1
outcome: inactive
--
Compound: N#Cc1nc(-c2ccccc2Cl)oc1NCC1CCCO1 (centres undefined)
outcome: inactive
--
Compound: COC(=O)CSc1nc(N)c(C#N)c(C(C)C)c1C#N
outcome: inactive
--
Compound: Cc1cccc(CNc2ncnc3ccc(-c4ccoc4)cc23)c1
outcome: inactive
--
Compound: O=C(Nc1cccc(Cl)c1)ON=C1c2ccccc2-c2ccccc21
outcome: inactive
--
Compound: O=c1cc(-c2ccc(O)cc2)oc2c(O)c(O)c(O)c(O)c12
outcome: inactive
--
Compound: COc1ccc(N=Nc2c(C)n[nH]c2C)cc1
outcome: inactive
--
Compound: COc1ccc(C(=O)N2CCN(c3c(C)cccc3C)CC2)cc1OC
outcome: inactive
--
Compound: CCOC(=O)c1cnc2ccc(C)cc2c1Nc1ccc(N2CCOCC2)cc1
outcome: inactive
--
Compound: c1cncc(-c2nc(NCc3ccco3)c3ccccc3n2)c1
outcome: inactive
--
Compound: COc1ccc2c(C#CCCO)c(-c3ccc(S(C)(=O)=O)cc3)sc2c1
outcome: inactive
--
Compound: Cc1ccc2c(c1)N(CC(=O)NC1CCCCC1)C(=O)c1cccnc1O2
outcome: inactive
--
Compound: N#CCSc1nc(Nc2ccc3c(c2)OCO3)c2ccccc2n1
outcome: inactive
--
Compound: O=C1[C@H]2[C@H](C=CC[C@H]2C(=O)N2CCOCC2)CCN1Cc1ccccc1
outcome: inactive
--
Compound: COC(=O)c1[nH]c2cc(OC)ccc2c1N
outcome: inactive
